# IC50 per entry for CDK2 (UniProt P24941)

Some solved cases for reference:
CNS(=O)(=O)Cc1ccc(NN=C2C(=O)Nc3cc(C)c(O)c(C)c32)cc1
51 to 100 nM
CCC(C)Cc1cccc2c1C(=NNc1ccc(S(N)(=O)=O)cc1)C(=O)N2 (stereo not given)
1 to 10 nM
CN(C)S(=O)(=O)c1ccc(N/C=C2\C(=O)Nc3ccc(-c4cnco4)cc32)cc1
1 to 10 nM
CS(=O)(=O)Cc1ccc(N/C=C2\C(=O)Nc3ccc4ncsc4c32)cc1
11 to 50 nM

Turning now to a further record.
Query: What IC50 appears in the records for this molecule with CDK2 (UniProt P24941)? O=C1Nc2ccc3ncsc3c2/C1=C/Nc1ccc2nn[nH]c2c1
Response: 11 to 50 nM

Values were extracted from the Kinase Knowledgebase extract (Sharma et al. 2016).
